Every entry's value here was drawn from the nanobody polyreactivity screen of Harvey et al. (2022).

- test name: yeast display, Sf9 membrane polyspecificity reagent, FACS + sequencing; frameworks hold sequencing errors

{"chain sequence": "QDQLVESGAGLVQAGGSLRLSCAASGITFSANAMGWYRQAPGKERELVATITWSGGSTYYADSVKGRFTISRDNAKNTVYLQMNSLKPEDTAVYFCNARSYDEYPYYSYNYWGQGTQVTVSS", "polyreactivity (PSR sort gate)": "low polyreactivity"}
{"chain sequence": "QDQHVQSGVGIVQAVGSLRLSCAASGFTIPSYAMGWYRMAPGKEREFVAAISWNSGSTYYADSVKGRFTISRDNAKNTVYLQMNSLKPEDTAVYYCNAGAYVRRRYAPGYSFEYDSWGQGTQVTVSS", "polyreactivity (PSR sort gate)": "high polyreactivity"}
{"chain sequence": "QVQLVESGGGLVHAGGSLRLSCAASGSTFHYYAMGWYRQPPGKERELDAGITSGGGRTYADSVKGRFTISRDNAKITVYLQMNSLNPEDTAVYYCNARPSTGWTIYGVDYWGQGTQVTVSS", "polyreactivity (PSR sort gate)": "low polyreactivity"}
{"chain sequence": "QVQLVESGGGLVQAGGSLRLSCAASGSTFVNAMGWYRQAPGKERELVAAISLSGDSTYYADSVKGRFTISRDNAKNTVYLQMNCLKPEDTAVYYCNADGLGGEDPEYLWYPVPDYDYWGQGTQVTVSS", "polyreactivity (PSR sort gate)": "low polyreactivity"}
{"chain sequence": "QVQLVESGGGLVQAGGSLRLSCAASGLTFISYDMGWYRQAPGKERELVAAISSGGVLPNYADSVKGRFTISRDNAKNTVYLQMNSLKPEDTAVYYCNADTPTWPLDYWGQGTQVTVSS", "polyreactivity (PSR sort gate)": "low polyreactivity"}
{"chain sequence": "QVQLVESGGGLVQAGGSLRLSCAASGRTFPRYAMGWYRPAAGKVWELVAAISVRAGITYYADSVKGRFTISRDNAKNTVYFQMNSLKPEDTAVYYCAKDHWTTSYDEGDYWGQGTQETVSS", "polyreactivity (PSR sort gate)": "low polyreactivity"}
{"chain sequence": "QVQLVESGGGIVQAGGSLRLSCAASGLIFPWTYAMGWYRQAHGKEREFVAAITSSDGSTYYADSVKGRFTISRDNAKNTVYLQMNSLKPEDTAVYYCAAVGWDYDWDYYYWGQGTQVTVSS", "polyreactivity (PSR sort gate)": "high polyreactivity"}
{"chain sequence": "QVQLVESGGGLVQAGGSLRLSCAASGSTFYTNAMGWSRQAPGKQREFVAALSGRGSNTYYADSVKGRFTISRYNAKNTVYLQMNSLKPEDTAVYYCAARRLAGFGYWGQGTQVTVSS", "polyreactivity (PSR sort gate)": "high polyreactivity"}
{"chain sequence": "QVQLVESGGGLVQAGGSLRLSCAASGSTFGPYAMGWYRQAPGKERELVAGITWSSASTYYADSVKGRFTISRDNAKNTVYLQMNSLKPEDTAVYYCIADSESTDYDYWGQGTQVTVSS", "polyreactivity (PSR sort gate)": "low polyreactivity"}
{"chain sequence": "QVQLVESGGGIVQAGGSLRLSCAASGGTFSRNAMGWYRQAPGKERELVAAINSSGVSTSYADSVKGRFTISRDNEKNTVYLQMNSLKPEDTAVYYCAAETSSAEVDYWGQGTQVTVSS", "polyreactivity (PSR sort gate)": "low polyreactivity"}
{"chain sequence": "QVQLVESGGGLVQAGGSLRLSCAASGSTFDYYAMGWYRQAPGKERELVAAISRTGGRTYYADSVKGRFTISRDNAKNTVYLQMNSLKPEDTAVYYCNAVTPIGGGDYDYWGEGTQVTVSS", "polyreactivity (PSR sort gate)": "low polyreactivity"}
{"chain sequence": "QVQLVESGGGLVQAGGSLRLSCAASGFTFGGNAMGWYRQAPGKERELVADITWSGGSTYYADSVKGRFTISRDNAKNTVYLQMNSLKPEDTAVYYCNTVRYPSSNSGLDYWGQGTQVTVSS", "polyreactivity (PSR sort gate)": "high polyreactivity"}
{"chain sequence": "QVQLVESGGGLVQAGGSLRLSCAASGTIFNEYAMGWYRQAPGKERELVAAISTSGDITYYADSVKGRFTISRDNAKNTVYLQMNSLKPEDTAVYYCAAKYSLLRQYNRLDYWGQGTQVTVSS", "polyreactivity (PSR sort gate)": "low polyreactivity"}
{"chain sequence": "QVQLVESGGGLVQAGGSLRLSCAASGSTYTYALGWSRQAPGKERELVADITQSGGSTYYADSVKGRFTISRDNAKNTVYLQMNSLKTEDTAVYYCNAESRHVFEDEYWGQGTQVTGSS", "polyreactivity (PSR sort gate)": "low polyreactivity"}
{"chain sequence": "QVHLVESGGGLVQAGGSLRLSCAASGSIFIVYTMGWYRQAPGKERELVAAISSGGITDYADSVKGRFTISRDNAKNTVYLQMNSLKPEDTAVYYWGQGTQVTVSS", "polyreactivity (PSR sort gate)": "low polyreactivity"}
{"chain sequence": "QVQLVESGGGLVQAGGSLRLSCAASGSTFYWYTMGWYRQAPGKERELVARISSSGSTNYADSVKGRFTISRDNAKNTVYLQMNSLKPEDTAVYYCNKDWIYRGYDYWGQGTQVTVSS", "polyreactivity (PSR sort gate)": "high polyreactivity"}
{"chain sequence": "QVQLQESGGGMVQAGGSLRLSSAASGYISWADSMGWYRQAPGKERELVAGIGYGSTTYYADSVKGRFTISRDNAKNTAYLQMNSLKPEDTAVYYCSVGWYRDTAYKYWGQGTQVTVRS", "polyreactivity (PSR sort gate)": "low polyreactivity"}
{"chain sequence": "QVQLVESGGGLVQAGGSLRLSCAASGRTFYRYAMGWYRQAPGKERELVASINRGGSTNYADSVKGRFTISRDNAKNTVFLQMNCLKPEDTAVYYCACYCYCYWGQGTQVTVSS", "polyreactivity (PSR sort gate)": "low polyreactivity"}
{"chain sequence": "QVQLVESGGGLVQAGGSLRLSCAASGSTISGYAMGWYRQAPGKEREFVASIRRSGGSTYYADSVKGRFTISRDNAKNTVYLQMNSLKPEDTAVYYCAKRYVVSRGDYWGQGTQVTVSS", "polyreactivity (PSR sort gate)": "high polyreactivity"}
{"chain sequence": "QVQLVESGGGLVQAGGSLRLSCAASGFISSHYAMGWYRPAPGKEWEVVATISSGGSTYADSVKGRFTISRDNAKNTVYLQMNSLKPEDTAVYYCAKRYYKSLNRDEFDSWGQGTQVTVSS", "polyreactivity (PSR sort gate)": "high polyreactivity"}
{"chain sequence": "QDQLVDSGGGLVQAGGSLRLSCAASGSIFTPNAMGWYRQAPGKERELVAAISWSGGGTYYADSVKGRFTISRDNAKNTVYLQMNSLKPEDTAVYYCNAEYTKTGALVIPYTYYYAEDYWGQGTQVTVSS", "polyreactivity (PSR sort gate)": "low polyreactivity"}
